Values compiled from patent US20200291018A1.

# Assay System: MERTK (Homo sapiens)
# Sequence (Q12866 21-999): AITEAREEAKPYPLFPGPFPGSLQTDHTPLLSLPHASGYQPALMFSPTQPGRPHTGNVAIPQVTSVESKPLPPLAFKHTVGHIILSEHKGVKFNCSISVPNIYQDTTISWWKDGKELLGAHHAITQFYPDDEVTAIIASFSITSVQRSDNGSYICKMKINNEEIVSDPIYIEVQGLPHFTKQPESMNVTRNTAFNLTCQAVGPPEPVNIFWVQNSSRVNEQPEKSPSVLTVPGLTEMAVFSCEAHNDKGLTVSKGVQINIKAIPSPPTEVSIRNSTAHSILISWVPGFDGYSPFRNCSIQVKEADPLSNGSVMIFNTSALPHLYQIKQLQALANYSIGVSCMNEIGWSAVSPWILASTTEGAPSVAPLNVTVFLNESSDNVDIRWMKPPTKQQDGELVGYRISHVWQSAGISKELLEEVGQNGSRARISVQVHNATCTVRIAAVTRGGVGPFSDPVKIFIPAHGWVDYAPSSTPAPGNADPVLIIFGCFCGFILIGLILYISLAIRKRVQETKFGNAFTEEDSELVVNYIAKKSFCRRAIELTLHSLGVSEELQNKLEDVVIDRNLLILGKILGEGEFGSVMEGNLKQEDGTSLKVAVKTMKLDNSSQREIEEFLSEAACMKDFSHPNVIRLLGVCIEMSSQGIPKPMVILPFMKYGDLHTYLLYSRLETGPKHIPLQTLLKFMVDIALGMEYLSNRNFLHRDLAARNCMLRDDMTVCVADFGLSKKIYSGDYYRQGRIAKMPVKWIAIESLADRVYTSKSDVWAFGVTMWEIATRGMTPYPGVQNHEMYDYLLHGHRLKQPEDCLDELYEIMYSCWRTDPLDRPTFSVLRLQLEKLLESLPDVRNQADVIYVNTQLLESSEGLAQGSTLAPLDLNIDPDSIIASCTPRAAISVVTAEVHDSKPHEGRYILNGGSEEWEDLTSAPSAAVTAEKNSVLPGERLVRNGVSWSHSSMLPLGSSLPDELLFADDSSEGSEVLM
# Assay Protocol: TR-FRET kinase activity assay, MERTK
# Format: biochemical
# Condition Label: ratio calculated as FLT3 IC50/Mer IC50
Property Name: Mer/Flt3 ratio (FLT3 IC50/Mer IC50)

In [3]: df
Out[3]:
                                    molecule    experimental_result
 0  CCCC(C)Nc1ncc2c(OC[C@H]3CC[C@H](O)CC3)ncc([C@H]3CC[C@H](O)CC3)c2n1 (stereo partly drawn)  +++ (a ratio of >100)
 1  C[C@H](CC(F)(F)F)Nc1ncc2c(OC3CCOCC3)ncc([C@H]3CC[C@H](O)CC3)c2n1  +++ (a ratio of >100)
 2  CC1(Nc2ncc3c(OC4CCNCC4)ncc([C@H]4CC[C@H](O)CC4)c3n2)CC1  +++ (a ratio of >100)
 3  CCOc1ncc([C@H]2CC[C@H](O)CC2)c2nc(N[C@@H](C)CC)ncc12  +++ (a ratio of >100)
 4  CC[C@H](C)Nc1ncc2c(OCC34CCC(O)(CC3)CC4)ncc([C@H]3CC[C@H](O)CC3)c2n1  +++ (a ratio of >100)
 5  COC[C@H](C)Nc1ncc2c(OC3CCOCC3)ncc([C@H]3CC[C@](C)(O)CC3)c2n1  +++ (a ratio of >100)
 6  C[C@@H](CC(F)F)Nc1ncc2c(O[C@H]3C[C@@H](O)C3)ncc([C@H]3CC[C@H](O)CC3)c2n1  +++ (a ratio of >100)
 7  CCCC(C)Nc1ncc2c(O[C@H]3C[C@@H](O)C3)ncc([C@H]3CC[C@H](O)CC3)c2n1 (stereo partly drawn)  +++ (a ratio of >100)
 8  CC[C@H](C)Nc1ncc2c(=O)n(CC34CCC(N(C)C)(CC3)CC4)cc([C@H]3CC[C@H](O)CC3)c2n1  +++ (a ratio of >100)
 9  CC[C@H](C)Nc1ncc2c(C)ncc([C@H]3CC[C@H](O)CC3)c2n1  +++ (a ratio of >100)
10  CCCC(C)Nc1ncc2c(NC3CCN(C)CC3)ncc([C@H]3CC[C@H](O)CC3)c2n1 (stereo partly drawn)  +++ (a ratio of >100)
11  CCOc1ncc([C@H]2CC[C@H](O)CC2)c2nc(N[C@@H](C)COC)ncc12  +++ (a ratio of >100)

---

pIC50: −log10 of the molar value.
Reported pIC50, UniProt:Q06418.
Sequence (Q06418 41-890): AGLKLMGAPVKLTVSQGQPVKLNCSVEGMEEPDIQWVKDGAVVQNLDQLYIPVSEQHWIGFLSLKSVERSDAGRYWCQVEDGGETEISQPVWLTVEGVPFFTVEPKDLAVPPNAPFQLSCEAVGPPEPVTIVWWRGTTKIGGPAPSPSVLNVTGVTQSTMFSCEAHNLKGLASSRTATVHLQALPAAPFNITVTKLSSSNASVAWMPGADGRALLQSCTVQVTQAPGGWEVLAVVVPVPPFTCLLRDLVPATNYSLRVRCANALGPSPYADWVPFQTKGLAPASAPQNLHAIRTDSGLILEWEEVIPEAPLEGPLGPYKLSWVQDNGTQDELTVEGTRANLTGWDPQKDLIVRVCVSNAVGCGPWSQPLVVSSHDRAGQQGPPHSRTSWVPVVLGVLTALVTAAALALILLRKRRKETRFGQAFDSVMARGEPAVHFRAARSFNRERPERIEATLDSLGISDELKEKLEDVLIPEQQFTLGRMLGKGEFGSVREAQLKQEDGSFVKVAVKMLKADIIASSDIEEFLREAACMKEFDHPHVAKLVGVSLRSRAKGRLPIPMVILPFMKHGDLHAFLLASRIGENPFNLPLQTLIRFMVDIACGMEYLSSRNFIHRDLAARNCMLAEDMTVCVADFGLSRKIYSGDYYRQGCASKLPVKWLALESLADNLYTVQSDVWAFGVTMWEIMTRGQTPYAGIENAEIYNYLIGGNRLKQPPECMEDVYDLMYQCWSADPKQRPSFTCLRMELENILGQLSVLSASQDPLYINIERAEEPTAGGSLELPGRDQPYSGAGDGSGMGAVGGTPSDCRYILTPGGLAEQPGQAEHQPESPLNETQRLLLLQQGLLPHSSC
Property Name: pIC50

>>> print(df.to_string())
                                    molecule    assay_system  experimental_result
 0  CCCC(C)Nc1ncc2c(OC3CCOCC3)ncc([C@H]3CC[C@H](O)CC3)c2n1 (stereo partly shown) [Compound 133]  UniProt:Q06418               ≥ 7.00
 1  O[C@H]1CC[C@H](c2cnc(OC3CCNCC3)c3cnc(Nc4ccccc4)nc32)CC1 [Compound 210]  UniProt:Q06418               ≥ 7.00
 2  CC(C)CC(C)Nc1ncc2c(=O)n(C3CCNCC3)cc([C@H]3CC[C@H](O)CC3)c2n1 (stereo partly shown) [Compound 119]  UniProt:Q06418               ≥ 7.00
 3  C[C@H](Nc1ncc2c(O[C@H]3C[C@@H](O)C3)ncc([C@H]3CC[C@H](O)CC3)c2n1)C(F)F [Compound 411]  UniProt:Q06418               ≥ 7.00
 4  O[C@H]1CC[C@H](c2cnc(OC3CCOCC3)c3cnc(Nc4ccc(-c5nn[nH]n5)cc4)nc32)CC1 [Compound 392]  UniProt:Q06418               ≥ 7.00
 5  C[C@@H](CC(F)(F)F)Nc1ncc2c(O[C@@H]3C[C@H]4CC[C@@H](C3)N4[C@H]3CCOC3)ncc([C@H]3CC[C@H](O)CC3)c2n1 [Compound 413]  UniProt:Q06418               ≥ 7.00
 6  CC(C)Nc1ncc2c(OC3CCOCC3)ncc(-c3cccc(S(=O)(=O)N(C)C)c3)c2n1 [Compound 288]  UniProt:Q06418               ≥ 7.00
 7  COC(=O)c1ccc(Nc2ncc3c(OC4CCNCC4)ncc([C@H]4CC[C@H](O)CC4)c3n2)cc1 [Compound 272]  UniProt:Q06418               ≥ 7.00
 8  C[C@@H](CC(F)(F)F)Nc1ncc2c(OC3CCN([C@H]4CCOC4)CC3)ncc([C@H]3CC[C@H](O)CC3)c2n1 [Compound 383]  UniProt:Q06418               ≥ 7.00
 9  CCCC(C)Nc1ncc2c(=O)n(C3CCN(CCOC)CC3)cc([C@H]3CC[C@H](O)CC3)c2n1 (stereo partly shown) [Compound 150]  UniProt:Q06418               ≥ 7.00
10  C[C@@H](CC(F)(F)F)Nc1ncc2c(O[C@H]3C[C@@](C)(O)C3)ncc([C@H]3CC[C@H](O)CC3)c2n1 [Compound 429]  UniProt:Q06418               ≥ 7.00
11  CCCC(C)Nc1ncc2c(=O)n(C3CCN(C4COC4)CC3)cc([C@H]3CC[C@H](O)CC3)c2n1 (stereo partly shown) [Compound 201]  UniProt:Q06418               ≥ 7.00
12  C[C@@H](CO)Nc1ncc2c(OC3CCOCC3)ncc([C@H]3CC[C@H](O)CC3)c2n1 [Compound 137]  UniProt:Q06418         6.00 to 7.00
13  C[C@@H](CC(F)(F)F)Nc1ncc2c(O[C@H]3C[C@@H](N4CCOCC4)C3)ncc([C@H]3CC[C@H](O)CC3)c2n1 [Compound 408]  UniProt:Q06418               ≥ 7.00
14  C[C@@H](CC(F)(F)F)Nc1ncc2c(O[C@H]3C[C@H](N4CCOCC4)C3)ncc([C@H]3CC[C@H](O)CC3)c2n1 [Compound 422]  UniProt:Q06418               ≥ 7.00
15  CC[C@H](C)Nc1ncc2c(O[C@H]3CC[C@H](C(C)(C)O)CC3)ncc([C@H]3CC[C@H](O)CC3)c2n1 [Compound 261]  UniProt:Q06418         6.00 to 7.00
16  COC[C@H](C)Nc1ncc2c(OC3CCOCC3)ncc(-c3ccc(N4CCN(C)CC4)cc3)c2n1 [Compound 279]  UniProt:Q06418         6.00 to 7.00
17  CC[C@H](C)Nc1ncc2c(OC3CC(C)(C)NC(C)(C)C3)ncc([C@H]3CC[C@H](O)CC3)c2n1 [Compound 246]  UniProt:Q06418               ≥ 7.00
18  COC[C@H](C)Nc1ncc2c(OC3CCOCC3)ncc([C@H]3CC[C@@](C)(O)CC3)c2n1 [Compound 294]  UniProt:Q06418         6.00 to 7.00
19  COCCN1[C@@H]2CC[C@H]1C[C@H](Oc1ncc([C@H]3CC[C@H](O)CC3)c3nc(N[C@@H](C)CC(F)(F)F)ncc13)C2 [Compound 432]  UniProt:Q06418               ≥ 7.00
20  CC[C@H](C)NC1=NC2C([C@H]3CC[C@H](O)CC3)=CN(C(C)C)C(=O)C2C=N1 (stereo partly shown) [Compound 231]  UniProt:Q06418               ≥ 7.00
21  CCCC(C)Nc1ncc2c(=O)n(C3CCN(S(C)(=O)=O)CC3)cc([C@H]3CC[C@@H](O)CC3)c2n1 (stereo partly shown) [Compound 138]  UniProt:Q06418               ≥ 7.00
22  N#Cc1ccc(Nc2ncc3c(OC4CCNCC4)ncc([C@H]4CC[C@H](O)CC4)c3n2)cc1 [Compound 331]  UniProt:Q06418               ≥ 7.00
23  CCCC(C)Nc1ncc2c(NC3CCN(C)CC3)ncc([C@H]3CC[C@H](O)CC3)c2n1 (stereo partly shown) [Compound 154]  UniProt:Q06418               ≥ 7.00
24  CCCC(C)Nc1ncc2c(=O)n(CCN(C)C)cc([C@H]3CC[C@H](O)CC3)c2n1 (stereo partly shown) [Compound 169]  UniProt:Q06418               ≥ 7.00
